Molecular target: T1, recombinant human soluble gpNMB (recombinant human gpNMB-FLAG-His) (human, UniProt Q14956 23-498)
T1 sequence: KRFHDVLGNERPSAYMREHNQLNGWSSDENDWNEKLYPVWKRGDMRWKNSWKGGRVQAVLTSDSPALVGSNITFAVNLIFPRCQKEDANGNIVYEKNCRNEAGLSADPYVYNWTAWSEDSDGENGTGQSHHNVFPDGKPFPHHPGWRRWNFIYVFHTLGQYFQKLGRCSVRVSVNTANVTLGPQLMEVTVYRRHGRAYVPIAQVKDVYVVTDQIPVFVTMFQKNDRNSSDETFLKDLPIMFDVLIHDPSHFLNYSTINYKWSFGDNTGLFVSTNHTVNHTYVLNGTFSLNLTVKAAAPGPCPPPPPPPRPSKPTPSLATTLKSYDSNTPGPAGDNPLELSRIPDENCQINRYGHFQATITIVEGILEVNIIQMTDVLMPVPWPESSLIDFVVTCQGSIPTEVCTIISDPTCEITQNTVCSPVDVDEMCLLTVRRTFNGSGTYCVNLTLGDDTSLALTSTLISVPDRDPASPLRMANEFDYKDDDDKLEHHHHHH
Assay: antigen ELISA
Measured EC50, listed per entry.
Supply the numeric figure in nM, leaving out any unit text.

Determine from records and report EC50 for hGPN06-1_H1L1 VL C95A (antibody, V domains shown) VH: QVQLVQSGAEVKKPGASVKVSCKASGYTFTDNWMGWVKQRPGQGLEWIGAIDPSDSFTNYNQNFKGRVTMTVDTSISTAYMELSRLRSDDSAVYFCTRSGYYGSPKLGGDYWGQGTLVTVSS VL: EIVLTQSPSSLSASVGDRVTITCSASSSISYMHWYQQKSGTAPKLLIYSTSNLASGVPSRFSGSGSGTDFTFTISSLQPEDAATYYCHQWNSYPATFGGGTKLEIK 3.15

State, in one line, measured EC50 of hGPN06-1_H1L1 VL I29A (antibody, V domains shown) VH: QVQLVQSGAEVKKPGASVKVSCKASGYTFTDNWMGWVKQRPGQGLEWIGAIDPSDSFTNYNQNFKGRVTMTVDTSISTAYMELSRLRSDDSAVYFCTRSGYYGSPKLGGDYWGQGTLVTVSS VL: EIVLTQSPSSLSASVGDRVTITCSASSSASYMHWYQQKSGTAPKLLIYSTSNLASGVPSRFSGSGSGTDFTFTISSLQPEDAATYYCHQWNSYPCTFGGGTKLEIK 23
